# Tested on: Mus musculus
# assay_protocol: Antimalarial activity against Plasmodium berghei ANKA infected in po dosed mouse assessed as suppression of parasitaemia administered for 3 days measured on day 4 relative to control
# Type: functional
measurement_kind: ED50 (mg/kg)
Answer format: numeric, mg/kg implied, no suffix.

stdin: Lookup: ED50 / Mus musculus / C[C@H]1[C@H](OC(=O)CCC(=O)O)O[C@@H]2O[C@@]3(C)CC[C@H]4[C@H](C)CC[C@@H]1[C@@]24OO3 [ARTESUNATE]
stdout: 2.8

stdin: Would you kindly repeat that for C1CC(NC2CCC3(CC2)OOC2(OO3)C3CC4CC(C3)CC2C4)CCO1 (stereo not drawn) ?
stdout: 2.8

stdin: # iterate: FC1(F)CCN(C2CCC3(CC2)OOC2(OO3)C3CC4CC(C3)CC2C4)CC1 (stereo not drawn)
stdout: 9.4
